These entries and their values trace back to ChEMBL document CHEMBL4257081.

# procedure.text: Ratio of drug level in brain to plasma in Sprague-Dawley rat at 10 mg/kg, iv administered as single dose measured after 3 hrs by LC/MS/MS analysis
# Format: ADME, organism-based
# test.context: brain and plasma, read-out: BPR
parameter: Kp at 3 h
Write the number on its own, no unit after it.

• Nc1oc2c(-c3ccncc3)nccc2c1Nc1ccc(F)c(Cl)c1 = 0.64

Now for the molecule whose Kp at 3 h we want.
What value of Kp at 3 h has been recorded for this entry: `Nc1oc2cnccc2c1Nc1ccc(F)c(Cl)c1` 6

* * *

# assayed.target: Tryptophan 2,3-dioxygenase (Homo sapiens, UniProt P48775)
# Sequence (P48775 whole entry): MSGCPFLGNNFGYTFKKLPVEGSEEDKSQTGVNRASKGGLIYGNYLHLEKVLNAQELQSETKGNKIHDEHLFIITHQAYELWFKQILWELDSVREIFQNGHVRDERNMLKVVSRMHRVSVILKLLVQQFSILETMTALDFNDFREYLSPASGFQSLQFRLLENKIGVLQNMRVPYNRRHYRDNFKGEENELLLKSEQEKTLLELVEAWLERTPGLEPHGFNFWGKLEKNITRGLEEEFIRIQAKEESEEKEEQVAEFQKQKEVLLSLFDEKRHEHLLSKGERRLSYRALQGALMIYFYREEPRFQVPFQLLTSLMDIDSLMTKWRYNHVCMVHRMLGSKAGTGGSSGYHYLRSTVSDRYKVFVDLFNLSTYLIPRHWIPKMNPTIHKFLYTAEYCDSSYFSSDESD
# procedure.text: Inhibition of recombinant human TDO2 expressed in CHOK1 cells assessed as reduction in kynurenine formation using L-tryptophan as substrate measured after 2 hrs by LC/MS/MS analysis
IC50 values, listed per item

* Nc1oc2cnc(F)cc2c1Nc1ccc(F)c(C(F)(F)F)c1 | < 500 nM
* Nc1oc2c(-c3ccccc3)nc(Oc3ccccc3)cc2c1Nc1ccc(F)c(Cl)c1 | > 2000 nM
* Nc1oc2c(-c3ccccc3Cl)nccc2c1Nc1ccc(F)c(Cl)c1 | < 500 nM
* Nc1oc2cnccc2c1Nc1ccc(F)c(F)c1 | 500 to 2000 nM
* CCOC(=O)Nc1oc2cnccc2c1Nc1ccc(F)c(Cl)c1 | > 2000 nM

What value of IC50 has been recorded for this entry: `Nc1sc2ccccc2c1Nc1ccccc1` < 500 nM
